Test: qHTS of pediatric cancer cell lines to identify multiple opportunities for drug repurposing: Primary screen for BT-12 cells (AID 1347101); also: nearly all actives have a fitted effect of over 25% in size
Settings: BT-12 viability, CellTiter-Glo luminescence, 48 h; series mostly up to 57.3 µM
Results filed as inconclusive are left out. The source made the active and inactive calls. Calls follow the shape of the dose curve; as a rule, active = well fitted cell-killing curve with a large enough effect; inconclusive = small, poorly fitted or top-dose-only effect; inactive = flat fitted curve, though single readings scatter.
Assign a class; possible classes are Y (active), N (inactive)

Example entries and their recorded answers appear below.
1. Cc1cc(O)c2c(c1)C(=O)c1cccc(O)c1C2=O | N
2. CN1[C@H]2CC(OC(=O)[C@@H](CO)c3ccccc3)C[C@H]1[C@H]1O[C@H]12 (stereo not given in full) | N
3. O=C1NC(=O)C(=Cc2ccc3nccc(-c4ccncc4)c3c2)S1 | Y
4. CC(C)(C)[N+]([O-])=Cc1ccc(S(=O)(=O)O)cc1S(=O)(=O)O | N

With those in mind, consider the next compound.
**Query** # lookup: test call for Oc1ccc(-c2ccc(-c3cc(Nc4cccc(CNC5CC5)c4)n[nH]3)cc2)c(O)c1
**Result** Y

Reference source: PubChem BioAssay (NCATS)
